Provide the recorded TGI for the entries that follow.
- Tested on: HL-60(TB) leukemia
- experimentNotes: NCI tumour cell line growth inhibition, 48 h

Measured TGI of Cn1c2c(c3ccccc31)CCN(CCCCN1CCCCC1)C2=O : > 100 µM

Measured TGI of Cc1cc(S(=O)(=O)Nc2nc3ccccc3o2)c(SCc2ccccc2)cc1Cl : > 100 µM

Measured TGI of CC#CC(O)(C(=O)OCCCN(C)C)C1CCCCC1 (stereo unspecified) : > 100 µM

Measured TGI of Cc1cn([C@@H]2C[C@@H]2CO)c(=O)[nH]c1=O : > 100 µM

Measured TGI of CCOC(=O)/C(=C/N1CCN(C(=O)c2ccco2)C1=S)C(=O)c1ccccc1 : 31 µM

Measured TGI of c1ccc(-c2nnn3c2NC2=C(CCCC2)C3c2ccccc2)cc1 (stereo unspecified) : 37.2 µM

Measured TGI of Nc1ccc2c(O)cc(=O)[nH]c2n1 : > 100 µM

Measured TGI of CC(C)(O)[C@@H]1CC[C@@]2(C)CCCC(O)C2(O)C1 (stereo partly specified) : > 100 µM

Measured TGI of COc1ccc(C2=N[C@@H](Cc3ccccc3)C(=O)Nc3ccsc32)cc1 : 19.3 µM

Measured TGI of CCC(C)CCOC(=O)c1ccc(N=Cc2ccc(C=Nc3ccc(C(=O)OCCC(C)CC)cc3)cc2)cc1 (stereo unspecified) : > 100 µM

Measured TGI of CC(=O)Nc1ccc(NCC(=O)Nn2cnc3ccc(S(=O)(=O)Nc4ccc(NC(C)=O)cc4)cc3c2=O)cc1 : > 100 µM

Data origin: PubChem BioAssay (NCI)
